- target: C-C chemokine receptor type 1 (Homo sapiens) (UniProt P32246)
- testProtocol: Displacement of [3H]-CCR2-RA-[R] from human TEV protease site linked CCR1 expressed in human U20S cell membranes co-expressing Gal4-VP16 transcription factor at 1 uM after 120 mins by scintillation spectrometry relative to control
propertyLabel: inhibition (%)

Look over these answered cases.
CC(=O)C1=C(O)C(=O)N(c2cccc(F)c2)C1C1CCCCC1 (stereo unspecified)    44
CC(=O)C1=C(O)C(=O)N(c2ccc(C)cc2)C1c1cccc(C)c1 (stereo unspecified)    47
Cc1ccc(N2C(=O)C(O)=C(C(=O)OC(C)C)C2C2CCCCC2)cc1 (stereo unspecified)    36
CC(=O)C1=C(O)C(=O)N(c2cccc(C(F)(F)F)c2)C1C1CCCCC1 (stereo unspecified)    25

[1] COc1cccc(C2C(C(C)=O)=C(O)C(=O)N2c2ccc(C)cc2)c1 (stereo unspecified)
[2] CC(=O)C1=C(O)C(=O)N(c2ccccc2)C1C1CCCCC1 (stereo unspecified)
[Q] Two entries are listed, 1 and 2 . Which one carries the higher inhibition? Identify your selection by its label.
[A] 2
(2: 42%, 1: 28%)

====

- target: C-C chemokine receptor type 1 (Homo sapiens, UniProt P32246)
- Sequence (P32246 whole entry): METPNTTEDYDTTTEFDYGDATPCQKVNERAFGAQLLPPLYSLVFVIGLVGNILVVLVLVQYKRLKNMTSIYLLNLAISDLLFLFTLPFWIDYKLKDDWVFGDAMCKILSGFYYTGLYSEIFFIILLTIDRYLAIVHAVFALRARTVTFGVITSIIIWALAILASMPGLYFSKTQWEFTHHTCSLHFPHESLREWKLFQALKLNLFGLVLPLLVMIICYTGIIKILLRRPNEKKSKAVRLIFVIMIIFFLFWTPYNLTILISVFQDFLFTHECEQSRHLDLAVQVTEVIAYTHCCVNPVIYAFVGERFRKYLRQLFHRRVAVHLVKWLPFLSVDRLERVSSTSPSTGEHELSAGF
pKi: −log10 of the molar value.
propertyLabel: pKi

Example entries begin here.
Cc1ccc(N2C(=O)C(O)=C(C(=O)C(C)(C)C)C2C2CCCCC2)cc1 (stereo not given)    7.66
CC(=O)C1=C(O)C(=O)N(c2ccc(C)cc2)C1C1CCCCCC1 (stereo not given)    7.25
CC(=O)C1=C(O)C(=O)N(c2ccc(C)cc2)C1c1ccc(Cl)cc1 (stereo not given)    7.17
CC(=O)C1=C(O)C(=O)N(c2ccc(Cl)c(C)c2)C1C1CCCCC1 (stereo not given)    7.51

[1] CCOC(=O)C1=C(O)C(=O)N(c2ccc(C)cc2)C1C1CCCCC1 (stereo not given)
[2] Cc1ccc(N2C(=O)C(O)=C(C(=O)c3ccccc3)C2C2CCCCC2)cc1 (stereo not given)
[3] CC(=O)C1=C(O)C(=O)N(c2ccc(C)c(C)c2)C1C1CCCCC1 (stereo not given)
[4] CC(=O)C1=C(O)C(=O)N(c2cccc(C)c2)C1C1CCCCC1 (stereo not given)
[Q] rank_up(items): orders items by reported pKi in ascending numerical order. Please write the labels in the order that was asked for.
[A] 4, 1, 2, 3
